B1: HDV Ribozyme (parent)
chain: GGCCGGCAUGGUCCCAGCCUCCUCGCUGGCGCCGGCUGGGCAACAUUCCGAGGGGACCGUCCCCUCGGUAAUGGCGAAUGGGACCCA

Variants of: B1
Experiment: self-cleavage, relative activity (ratio to wild type); higher = more cleavage; co-transcriptional
Cut-off 0.6 on self-cleavage, inclusive. At or above means TRUE; below means FALSE.

# count of solved cases: 7
GGCCGGCAUGGUCCCAGCCUCCUCGCUGGCGCCGGCUGGGCAACCUUCCGAGGGGACCGGCCCCUCGGUAAUGGCGAAUGGGACCCA [A45C U60G]    TRUE
GGCCGGCAUGGUCCCAGCCCCCUCGCUCGCGCCGGCUGGGCAACAUUCCGAGGGGACCGUCCCCUCGGUAAUGGCGAAUGGGACCCA [U20C G28C]    FALSE
GGCCGGCAUUGUCCCAGCCUCCUCGCUGGCGCCGGCUGGGCAACAUUCCGAGGGGACCGUCCCCUCGGUAAUGGCGGAUGGGACCCA [G10U A77G]    FALSE
GGCCGGCAUGGUCCCAGCCCCCUCGCCGGCGCCGGCUGGGCAACAUUCCGAGGGGACCGUCCCCUCGGUAAUGGCGAAUGGGACCCA [U20C U27C]    FALSE
GGCCGGCAUGGUCCCAGCCUGCUCGCUGGCGCCGGCUGAGCAACAUUCCGAGGGGACCGUCCCCUCGGUAAUGGCGAAUGGGACCCA [C21G G39A]    FALSE
GGCCGGCAUGGUCCCAGCCUCCUCGCUGGCGCCGGCUGGGCAACAUUCCGAGGGGACCGUCCCCUAGGUAAUGGCGAAGGGGACCCA [C66A U79G]    TRUE
GGCCGGCGUGGUCCCAGCCUCCUCGCUGGCGCCGGCUGGGCAACAUUCCGAGGGCACCGUCCCCUCGGUAAUGGCGAAUGGGACCCA [A8G G55C]    TRUE

# check: self-cleavage of GGCCGGCAUGGUCCCAGCCUGCUCGCUGGCGCCGGCUGGGCAACAUUCCGAGGGGACCGUCCCCUCCGUAAUGGCGAAUGGGACCCA [C21G G67C] is greater than or equal to 0.6 FALSE
